Species: Rattus norvegicus
Assay: Open TG-GATES - Regimen: Single
Format: toxicity, organism-based, Sprague-Dawley
Parameters: regimen Single, gender Male, age 6 weeks
Conditions: in vivo, po, 0 mg/kg, 6 h, tissue Blood, route gavage, dose level Control
Some compounds, each annotated with its measured APTT.
Form entry: enter the amount, then its unit.

Study these solved cases before continuing.
Prompt: Please list APTT recorded for the compound C1CCC(C(CC2CCCCN2)C2CCCCC2)CC1 (stereo unspecified)
Response: 20.9 s

Prompt: Please list APTT recorded for the compound `CN(C)[C@@H]1C(O)=C(C(N)=O)C(=O)[C@@]2(O)C(O)=C3C(=O)c4c(O)cccc4[C@@](C)(O)[C@H]3C[C@@H]12`
Response: 16.7 s

Prompt: Please list APTT recorded for the compound `CN1C(C(=O)Nc2ccccn2)=C(O)c2sc(Cl)cc2S1(=O)=O`
Response: 19.8 s

Prompt: Please list APTT recorded for the compound CC(CN1c2ccccc2Sc2ccccc21)N(C)C (stereo unspecified)
Response: 22.7 s

Prompt: Please list APTT recorded for the compound `CCOC(=O)[C@H](CCc1ccccc1)N[C@@H](C)C(=O)N1CCC[C@H]1C(=O)O`
Response: 16.4 s

More entries:
Prompt: Please list APTT recorded for the compound `Clc1c(Cl)c(Cl)c(Cl)c(Cl)c1Cl`
Response: 19.5 s

----------
Species on record: Rattus norvegicus
Assay: Open TG-GATES - Regimen: Single
Format: toxicity, organism-based, Sprague-Dawley
Set-up: regimen Single, gender Male, age 6 weeks
Settings: in vivo, po, 0 mg/kg, 3 h, tissue Blood, route gavage, dose level Control
Some molecules, each annotated with its measured Neu.
Form entry: enter the amount, then its unit.

Prompt: Please list Neu recorded for the molecule C1CCC(C(CC2CCCCN2)C2CCCCC2)CC1 (centres undefined)
Response: 16.8%

Prompt: Please list Neu recorded for the molecule `Clc1c(Cl)c(Cl)c(Cl)c(Cl)c1Cl`
Response: 18.6%

Prompt: Please list Neu recorded for the molecule `C#C[C@]1(O)CC[C@H]2[C@@H]3CCC4=Cc5oncc5C[C@]4(C)[C@H]3CC[C@@]21C`
Response: 19.6%

Prompt: Please list Neu recorded for the molecule `Cc1cccc(Nc2ccccc2C(=O)O)c1C`
Response: 16.4%

More entries:
Prompt: Please list Neu recorded for the molecule `CN1C(C(=O)Nc2ccccn2)=C(O)c2sc(Cl)cc2S1(=O)=O`
Response: 16.4%

Prompt: Please list Neu recorded for the molecule CC(CN1c2ccccc2Sc2ccccc21)N(C)C (centres undefined)
Response: 15.2%

Prompt: Please list Neu recorded for the molecule `CCOC(=O)[C@H](CCc1ccccc1)N[C@@H](C)C(=O)N1CCC[C@H]1C(=O)O`
Response: 13%

Prompt: Please list Neu recorded for the molecule `CN(C)[C@@H]1C(O)=C(C(N)=O)C(=O)[C@@]2(O)C(O)=C3C(=O)c4c(O)cccc4[C@@](C)(O)[C@H]3C[C@@H]12`
Response: 12.8%

Prompt: Please list Neu recorded for the molecule COc1cc([C@@H]2c3cc4c(cc3[C@@H](O[C@@H]3O[C@@H]5CO[C@@H](C)O[C@H]5[C@H](O)[C@H]3O)[C@H]3COC(=O)[C@H]23)OCO4)cc(OC)c1O [ETOPOSIDE]
Response: 15.8%

----------
Some molecules, each annotated with its measured TG.
Species: Rattus norvegicus
Assay: Open TG-GATES - Regimen: Single
Format: toxicity, organism-based, Sprague-Dawley
Design: regimen Single, gender Male, age 6 weeks
Conditions: in vivo, po, 0 mg/kg, 24 h, tissue Plasma, route gavage, dose level Control
Reply with just the number (in mg/dL).

Study these solved cases before continuing.
Prompt: Please list TG recorded for the molecule `CN(C)[C@@H]1C(O)=C(C(N)=O)C(=O)[C@@]2(O)C(O)=C3C(=O)c4c(O)cccc4[C@@](C)(O)[C@H]3C[C@@H]12`
Response: 69.2

Prompt: Please list TG recorded for the molecule `O=[N+]([O-])c1ccc2c(c1)Cc1ccccc1-2`
Response: 105.8

Prompt: Please list TG recorded for the molecule `Clc1c(Cl)c(Cl)c(Cl)c(Cl)c1Cl`
Response: 68.2

Prompt: Please list TG recorded for the molecule `Cc1cccc(Nc2ccccc2C(=O)O)c1C`
Response: 120.4

Prompt: Please list TG recorded for the molecule C1CCC(C(CC2CCCCN2)C2CCCCC2)CC1 (stereo unspecified)
Response: 149.4

More entries:
Prompt: Please list TG recorded for the molecule COc1cc([C@@H]2c3cc4c(cc3[C@@H](O[C@@H]3O[C@@H]5CO[C@@H](C)O[C@H]5[C@H](O)[C@H]3O)[C@H]3COC(=O)[C@H]23)OCO4)cc(OC)c1O [ETOPOSIDE]
Response: 84.4

Prompt: Please list TG recorded for the molecule CC(=O)Nc1nnc(S(N)(=O)=O)s1 [ACETAZOLAMIDE]
Response: 97

Prompt: Please list TG recorded for the molecule `CCOC(=O)[C@H](CCc1ccccc1)N[C@@H](C)C(=O)N1CCC[C@H]1C(=O)O`
Response: 84.6

Prompt: Please list TG recorded for the molecule `C#C[C@]1(O)CC[C@H]2[C@@H]3CCC4=Cc5oncc5C[C@]4(C)[C@H]3CC[C@@]21C`
Response: 93

Prompt: Please list TG recorded for the molecule CC(CN1c2ccccc2Sc2ccccc21)N(C)C (stereo unspecified)
Response: 95.8

Prompt: Please list TG recorded for the molecule `CN1C(C(=O)Nc2ccccn2)=C(O)c2sc(Cl)cc2S1(=O)=O`
Response: 101.2

----------
Species on record: Rattus norvegicus
Assay: Open TG-GATES - Regimen: Single
Assay type: toxicity, organism-based, Sprague-Dawley
Set-up: regimen Single, gender Male, age 6 weeks
Conditions: in vivo, po, 0 mg/kg, 6 h, tissue Blood, route gavage, dose level Control
MEASURE NAME: RBC
Form entry: enter the amount, then its unit.

Study these solved cases before continuing.
Prompt: Please list RBC recorded for the molecule CN1C(C(=O)Nc2ccccn2)=C(O)c2sc(Cl)cc2S1(=O)=O [LORNOXICAM]
Response: 632.4 x10_4/ul

Prompt: Please list RBC recorded for the molecule CC(CN1c2ccccc2Sc2ccccc21)N(C)C (centres undefined) [PROMETHAZINE]
Response: 639.6 x10_4/ul

Prompt: Please list RBC recorded for the molecule COc1cc([C@@H]2c3cc4c(cc3[C@@H](O[C@@H]3O[C@@H]5CO[C@@H](C)O[C@H]5[C@H](O)[C@H]3O)[C@H]3COC(=O)[C@H]23)OCO4)cc(OC)c1O [ETOPOSIDE]
Response: 607.8 x10_4/ul

Proceeding to the next molecule to report its RBC.
Prompt: Please list RBC recorded for the molecule CC(=O)Nc1nnc(S(N)(=O)=O)s1 [ACETAZOLAMIDE]
Response: 622.4 x10_4/ul

----------
Organism: Rattus norvegicus
Experiment: Open TG-GATES - Regimen: Daily Repeat
Format: toxicity, organism-based, Sprague-Dawley
Set-up: regimen Daily Repeat, gender Male, age 6 weeks
Details: in vivo, po, 0 mg/kg, […], tissue Kidney, route gavage, dose level Control, time 7 day
MEASURE NAME: KIDNEY_R
Form entry: enter the amount, then its unit.

Prompt: Please list KIDNEY_R recorded for the compound CC(=O)Nc1nnc(S(N)(=O)=O)s1 [ACETAZOLAMIDE]
Response: 1.1 g

----------
Organism: Rattus norvegicus
Assay: Open TG-GATES - Regimen: Single
Type: toxicity, organism-based, Sprague-Dawley
Set-up: regimen Single, gender Male, age 6 weeks
Conditions: in vivo, po, 0 mg/kg, 24 h, tissue Kidney, route gavage, dose level Control
Some molecules, each annotated with its measured KIDNEY_L.
Reply with just the number (in g).

Study these solved cases before continuing.
Prompt: Please list KIDNEY_L recorded for the molecule `C#C[C@]1(O)CC[C@H]2[C@@H]3CCC4=Cc5oncc5C[C@]4(C)[C@H]3CC[C@@]21C`
Response: 1

Prompt: Please list KIDNEY_L recorded for the molecule `Clc1c(Cl)c(Cl)c(Cl)c(Cl)c1Cl`
Response: 1.1

Prompt: Please list KIDNEY_L recorded for the molecule CC(CN1c2ccccc2Sc2ccccc21)N(C)C (stereo unspecified)
Response: 1

Prompt: Please list KIDNEY_L recorded for the molecule COc1cc([C@@H]2c3cc4c(cc3[C@@H](O[C@@H]3O[C@@H]5CO[C@@H](C)O[C@H]5[C@H](O)[C@H]3O)[C@H]3COC(=O)[C@H]23)OCO4)cc(OC)c1O [ETOPOSIDE]
Response: 1

More entries:
Prompt: Please list KIDNEY_L recorded for the molecule `CN(C)[C@@H]1C(O)=C(C(N)=O)C(=O)[C@@]2(O)C(O)=C3C(=O)c4c(O)cccc4[C@@](C)(O)[C@H]3C[C@@H]12`
Response: 0.9

Prompt: Please list KIDNEY_L recorded for the molecule `CCOC(=O)[C@H](CCc1ccccc1)N[C@@H](C)C(=O)N1CCC[C@H]1C(=O)O`
Response: 1.1

Prompt: Please list KIDNEY_L recorded for the molecule `CN1C(C(=O)Nc2ccccn2)=C(O)c2sc(Cl)cc2S1(=O)=O`
Response: 1

Prompt: Please list KIDNEY_L recorded for the molecule CC(=O)Nc1nnc(S(N)(=O)=O)s1 [ACETAZOLAMIDE]
Response: 1

Prompt: Please list KIDNEY_L recorded for the molecule C1CCC(C(CC2CCCCN2)C2CCCCC2)CC1 (stereo unspecified)
Response: 1

Prompt: Please list KIDNEY_L recorded for the molecule `O=[N+]([O-])c1ccc2c(c1)Cc1ccccc1-2`
Response: 0.9

Prompt: Please list KIDNEY_L recorded for the molecule `Cc1cccc(Nc2ccccc2C(=O)O)c1C`
Response: 1
